# assay-overview: Microsomal stability (T1/2)
# Assay type: in vitro ADME
# experimental-conditions: microsomes
Would you mind labelling by half-life? At or over 60 min is label 1, under is label 0.

compound-structure-string: O=S(=O)(/C=C/c1cccc(Cl)c1)Nc1cccc(OCc2cccc(Cl)c2)c1
label-value: label 1

### Prompt # bool: half-life of COc1cccc(COc2cc(NS(=O)(=O)/C=C/c3cccc(Cl)c3)ccc2OC)c1 >= 60 min
### Response label 0

### Prompt Could you do the same for O=S(=O)(/C=C/c1cccc(Cl)c1)Nc1cccc(OCc2cccc(F)c2)c1 , please?
### Response label 1

### Prompt Could you do the same for COc1ccc(NS(=O)(=O)/C=C/c2cccc(Cl)c2)cc1OCc1cccc(Cl)c1 , please?
### Response label 1

### Prompt Could you do the same for COc1ccc(NS(=O)(=O)/C=C/c2cccc([N+](=O)[O-])c2)cc1OCc1cccc(Cl)c1 , please?
### Response label 0

### Prompt Could you do the same for COc1ccc(NS(=O)(=O)/C=C/c2cccc(Cl)c2)cc1O , please?
### Response label 0

---

# system-under-test: IMP-1 beta-lactamase (Serratia marcescens)
# Sequence (P52699 19-246, looked up): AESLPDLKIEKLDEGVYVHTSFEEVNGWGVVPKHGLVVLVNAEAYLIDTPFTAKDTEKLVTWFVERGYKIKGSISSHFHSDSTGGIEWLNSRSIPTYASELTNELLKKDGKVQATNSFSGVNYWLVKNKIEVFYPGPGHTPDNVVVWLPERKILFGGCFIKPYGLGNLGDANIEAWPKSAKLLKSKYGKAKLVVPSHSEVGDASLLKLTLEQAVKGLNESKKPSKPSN
# assay-overview: Spectrophotometric nitrocefin hydrolysis inhibition assay, IMP-1
What pKi was measured for each of the following?
Numbers only, as −log10 of the molar value.

compound: O=S(=O)(/C=C/c1cccc(Cl)c1)N(Cc1cccc(Cl)c1)c1cccc(OCc2cccc(Cl)c2)c1 [ef-rs-08-052]
pKi: 6.69

### Prompt Which measured pKi value corresponds to O=S(=O)(/C=C/c1cccc(Cl)c1)N(Cc1cccc(Cl)c1)c1cccc(Cl)c1 [ef-rs-03-075] ?
### Response 6.30

---

# system-under-test: wild type TEM-1 β-lactamase (Escherichia coli, UniProt P62593)
# Sequence (P62593 24-286 limits assumed): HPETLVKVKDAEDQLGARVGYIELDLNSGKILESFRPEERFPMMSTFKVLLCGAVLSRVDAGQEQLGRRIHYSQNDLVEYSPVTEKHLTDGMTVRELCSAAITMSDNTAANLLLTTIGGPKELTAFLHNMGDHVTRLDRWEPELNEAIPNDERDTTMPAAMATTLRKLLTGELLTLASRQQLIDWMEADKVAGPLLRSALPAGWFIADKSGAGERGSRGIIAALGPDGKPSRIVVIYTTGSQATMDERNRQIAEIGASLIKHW
# assay-overview: Spectrophotometric nitrocefin hydrolysis inhibition assay, TEM-1
# experimental-conditions: 25° C., 50 mM sodium phosphate, 5% DMSO, pH 7.0, nitrocefin 167 μM; read-out: Ki TEM-1 (WT)
assay-metric: pKi
Give bare numbers, as −log10 of the molar value.

### Prompt Which measured pKi value corresponds to O=S(=O)(/C=C/c1cccc(Cl)c1)N(Cc1cccc(Cl)c1)c1cccc(Cl)c1 [ef-rs-03-075] ?
### Response 7.09

---

# system-under-test: AmpC β-lactamase (Escherichia coli, UniProt P00811)
# Sequence (P00811 20-377): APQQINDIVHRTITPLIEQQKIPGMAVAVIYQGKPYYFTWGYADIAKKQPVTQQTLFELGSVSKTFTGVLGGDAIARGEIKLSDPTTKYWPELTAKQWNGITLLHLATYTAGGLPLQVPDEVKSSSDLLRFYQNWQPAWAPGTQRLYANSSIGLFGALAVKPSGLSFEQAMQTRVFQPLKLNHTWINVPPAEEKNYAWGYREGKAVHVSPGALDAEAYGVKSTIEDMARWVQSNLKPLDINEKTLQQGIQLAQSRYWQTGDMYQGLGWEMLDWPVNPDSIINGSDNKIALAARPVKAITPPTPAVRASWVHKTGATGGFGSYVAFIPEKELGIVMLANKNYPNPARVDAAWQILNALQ
# assay-overview: Spectrophotometric nitrocefin hydrolysis inhibition assay, AmpC
assay-metric: Ki (nM)
Give bare numbers, in nM.

Worked examples follow.
molecule: O=S(=O)(/C=C/c1cccc(Br)c1)Nc1cccc(-c2nnn(Cc3cccc(Cl)c3)n2)c1
readout-number: 182
--
molecule: O=S(=O)(/C=C/c1cccc(C(F)(F)F)c1)Nc1cccc(-c2nnn(Cc3cccc(Cl)c3)n2)c1 [ef-rs-05-076]
readout-number: 80

Now, please, on to the next molecule.
### Prompt Checklist item: Ki tested on AmpC β-lactamase (Escherichia coli, UniProt P00811), entry O=S(=O)(/C=C/c1cccc(Cl)c1)N(Cc1cccc(Cl)c1)c1cccc(OCc2cccc(Cl)c2)c1 [ef-rs-08-052] , value?
### Response 67

---

# system-under-test: HSA (Homo sapiens)
# Sequence (P02768 25-609): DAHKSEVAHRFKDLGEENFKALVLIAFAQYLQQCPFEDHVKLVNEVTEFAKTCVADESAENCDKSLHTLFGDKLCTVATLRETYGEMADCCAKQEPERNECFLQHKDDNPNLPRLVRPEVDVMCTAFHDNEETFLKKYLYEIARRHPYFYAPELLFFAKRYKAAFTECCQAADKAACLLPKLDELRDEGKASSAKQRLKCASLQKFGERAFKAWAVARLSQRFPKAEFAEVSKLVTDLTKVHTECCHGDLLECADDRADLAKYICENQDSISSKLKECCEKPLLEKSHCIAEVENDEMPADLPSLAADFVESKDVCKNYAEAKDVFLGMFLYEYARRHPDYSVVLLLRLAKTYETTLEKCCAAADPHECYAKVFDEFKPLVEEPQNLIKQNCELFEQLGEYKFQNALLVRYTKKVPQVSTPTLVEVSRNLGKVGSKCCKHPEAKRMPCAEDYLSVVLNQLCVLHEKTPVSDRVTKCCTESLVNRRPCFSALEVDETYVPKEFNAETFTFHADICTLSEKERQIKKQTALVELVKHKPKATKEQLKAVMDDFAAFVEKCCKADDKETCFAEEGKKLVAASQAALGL
# assay-overview: HSA binding (Kd)
assay-metric: Kd (nM)
Give bare numbers, in nM.

Worked examples follow.
compound-structure-string: COc1cc(NS(=O)(=O)/C=C/c2cccc(Cl)c2)ccc1OCc1cccc(Cl)c1
Kd, nM: 484
--
compound-structure-string: COc1cccc(COc2cc(NS(=O)(=O)/C=C/c3cccc(Cl)c3)ccc2OC)c1
Kd, nM: 348
--
compound-structure-string: O=S(=O)(/C=C/c1cccc(Cl)c1)Nc1ccc(OCc2cccc(Cl)c2)cc1
Kd, nM: 301

### Prompt Which measured Kd value corresponds to COc1ccc(NS(=O)(=O)/C=C/c2cccc(Cl)c2)cc1O ?
### Response 2510
